Here the recorded melting point is given for each entry.

molecule	melting point
COc1cc2c(cc1CCNC(=O)Cc1ccc(OC)c(OC)c1)CCC2	115 °C
Cc1cc(Cc2cc(C(F)(F)F)cc(C(F)(F)F)c2)ccc1NC(=O)c1cccc(Cl)c1C(=O)NC(C)CS(C)=O (stereo not drawn)	162 to 165 °C

In the following, a different molecule is considered.
Sure, the documented melting point for COC(=O)c1cc(C(C)(C)C(=O)OC)ccc1N is 58 to 60 °C

----------
measured.parameter: melting point

Check out these entries, answers already filled in.
compound	melting point
COc1ccc(-c2ccc3nnc(-c4ccccc4OC)n3n2)cc1OC	95 to 97 °C
COc1ccc(S(=O)(=O)N(C)C)c(S(N)(=O)=O)c1	106 to 109 °C

Sure, the documented melting point for Nc1nc(Cl)nc2c1ncn2C1C=CCCC1 (stereo not given) is 195 to 197 °C

Sure, the documented melting point for Cn1nc(-c2cccc(N3Cc4cc(C(C)(C)C)ccc4C3=O)c2CO)cc(Nc2ccncn2)c1=O is 236 to 238 °C

Sure, the documented melting point for Cc1nc(-c2cc(C)c(OCCCc3cc(C(F)(F)F)no3)c(C)c2)no1 is 62 to 64.5 °C

Sure, the documented melting point for COC(=O)c1nc2sc(CC(C)C)c(C)c2c(=O)[nH]1 is 173 to 175 °C

Sure, the documented melting point for CCOC(=O)c1ccc(-c2nc(COc3ccc(CO)cc3OC)c(C)o2)o1 is 105 to 106 °C

Sure, the documented melting point for N#Cc1ccc(C[C@]23C[C@@H](O)CN2C(=O)N(c2cc(Cl)nc(Cl)c2)C3=O)cc1 is 97.6 °C

Sure, the documented melting point for CCc1nc2c(N)nc3cc(OCC(=O)c4ccsc4)ccc3c2s1 is 202 to 203 °C

Sure, the documented melting point for O=C(NCCc1cncn1Cc1ccc(Cl)cc1)[C@H]1CN(Cc2ccccc2)CCN1C(=O)NC1CCCCC1 is 116 °C

Sure, the documented melting point for Cc1ccc(C(N)=O)cc1NC(=O)COCCO is 118 to 119 °C

Sure, the documented melting point for Cc1c(C)c2c(c(C)c1N)OC(C)(C)C2Cc1ccccc1 (stereo not given) is 75 to 76 °C

Sure, the documented melting point for Cc1cc(Oc2c(Cl)cc(C(F)(F)F)cc2Cl)nn1C(=O)NCCN1CCOCC1 is 99 to 101 °C

Sure, the documented melting point for Cn1cncc1C(O)(c1ccc(Cl)cc1)c1ccc2c(c1)c(-c1cccc(Cl)c1)cc(=O)n2C (stereo not given) is 234 °C

Sure, the documented melting point for Cc1cc(C)c2nnn(C(=O)N3CCOCC3)c2c1 is 115 °C

Sure, the documented melting point for O=C(O)c1cnn2c(C(F)F)cc(-c3ccc(C(F)(F)F)c(Cl)c3)nc12 is 216 °C

Sure, the documented melting point for COc1ccccc1[N+]1([O-])CC[N+]([O-])(CCN(C(=O)C2CCCCC2)c2ccccc2[N+](=O)[O-])CC1 (stereo not given) is 153 to 157 °C

Sure, the documented melting point for Cc1cc(OCC(F)(F)F)c(NC(=O)CN2CCN(CCO)CC2)c(OCC(F)(F)F)n1 is 117 to 118 °C

Sure, the documented melting point for CCc1cccc(CC(=O)O)c1OCCCc1cn(-c2ccc(C(F)(F)F)nn2)nc1C(CC)CC is 93 to 94 °C

Sure, the documented melting point for NP(N)(=O)Oc1ccc2cccc(NS(=O)(=O)c3ccc([N+](=O)[O-])cc3)c2c1 is 234 to 235 °C
